Target: CDK2/Cyclin E1 complex (Homo sapiens, UniProt P24941)
Assay: CDK2 inhibition assay (Caliper/LabChip EZ Reader kinase assay)
Assay type: biochemical
Details: Table 1; CDK2/Cyclin E1 0.5 nM, ATP 2 mM, 35 min at 27° C.
Procedure: Compounds of the invention were assayed for inhibition of CDK7, CDK9, CDK12, and CDK2 activity at Biortus Biosciences (Jiangyin, Jiangsu Province, P.R. of China) using kinase assays for each CDK developed with a Caliper/LabChip EZ Reader (Perkin Elmer, Waltham, MA). […]
pIC50: −log10 of the molar value.
ENDPOINT: pIC50

Exam item: For the molecule shown here, CCCc1cnc(N[C@H]2CCCNC2)nc1-c1c[nH]c2c(S(C)(=O)=O)c(C#N)ccc12 , give the reported pIC50.
Marked response: < 5.30

Exam item: For the molecule shown here, N#Cc1ccc2c(-c3nc(N[C@H]4CCCNC4)ncc3SC(F)F)c[nH]c2c1 , give the reported pIC50.
Marked response: < 5.30

Exam item: For the molecule shown here, CC1(C)CNC[C@@H](Nc2ncc(C(F)(F)F)c(-c3c[nH]c4ccccc34)n2)C1 , give the reported pIC50.
Marked response: 5.30 to 6.70

Exam item: For the molecule shown here, FC(F)(F)c1cnc(N[C@H]2CCCNC2)nc1-c1c[nH]c2cc(-c3cccnc3)ccc12 , give the reported pIC50.
Marked response: 5.30 to 6.70

Exam item: For the molecule shown here, CCC(=O)N[C@@H]1CNC[C@H](Nc2ncc(C(F)(F)F)c(-c3c[nH]c4c(S(C)(=O)=O)cccc34)n2)C1 (single isomer, unassigned) , give the reported pIC50.
Marked response: 5.30 to 6.70

Exam item: For the molecule shown here, CC(O)c1cnc(NC2CCCNC2)nc1-c1c[nH]c2ccccc12 (single isomer, unassigned) [Compound 239] , give the reported pIC50.
Marked response: < 5.30

Exam item: For the molecule shown here, O=S(=O)(CF)c1ccc2c(-c3nc(N[C@H]4CCCNC4)ncc3C(F)(F)F)c[nH]c2c1 , give the reported pIC50.
Marked response: 5.30 to 6.70

Exam item: For the molecule shown here, c1ccc2c(-c3nc(N[C@H]4CCCNC4)ncc3C3CC3)c[nH]c2c1 , give the reported pIC50.
Marked response: < 5.30

Exam item: For the molecule shown here, CC1(C)CCNC[C@H]1Nc1ncc(C(F)(F)F)c(-c2c[nH]c3ccccc23)n1 (single isomer, unassigned) , give the reported pIC50.
Marked response: < 5.30

Exam item: For the molecule shown here, CCc1cnc(N[C@H]2CCCNC2)nc1-c1n[nH]c2cc(C#N)ccc12 , give the reported pIC50.
Marked response: 5.30 to 6.70

Exam item: For the molecule shown here, Cc1noc([C@H]2CC[C@H](Nc3ncc(C(F)(F)F)c(-c4c[nH]c5cc(C#N)ccc45)n3)CN2)n1 , give the reported pIC50.
Marked response: < 5.30

Exam item: For the molecule shown here, CS(=O)(=O)c1cccn2c([C@H]3CCC[C@@H](Nc4ncc(C(F)(F)F)c(-c5c[nH]c6ccccc56)n4)C3)nnc12 , give the reported pIC50.
Marked response: 5.30 to 6.70

Exam item: For the molecule shown here, CCc1cnc(N[C@H]2CCCNC2)nc1-c1c[nH]c2ncc(F)cc12 , give the reported pIC50.
Marked response: 5.30 to 6.70

Exam item: For the molecule shown here, CCP(=O)(CC)c1ccc2c(-c3nc(N[C@H]4CCCNC4)ncc3C(F)(F)F)c[nH]c2c1 , give the reported pIC50.
Marked response: < 5.30

Exam item: For the molecule shown here, O=S(=O)(c1ccc2c(-c3nc(N[C@H]4CCCNC4)ncc3C(F)(F)F)c[nH]c2c1)C(F)F , give the reported pIC50.
Marked response: 5.30 to 6.70

Exam item: For the molecule shown here, CCc1cnc(N[C@H]2CCCNC2)nc1-c1c[nH]c2cc(S(C)(=O)=O)ccc12 , give the reported pIC50.
Marked response: < 5.30
